Test system: pigweed (Amaranthus retroflexus)
Experiment: Test A postemergence, pigweed
Type: in vivo
Conditions: 500 g ai/ha, 0 to 100 scale (0 no effect, 100 complete control)
assay endpoint: Plant response rating, Pigweed
Form rule: numeric answer, no unit written next to it.

• CC1(C)CC(S(=O)(=O)Cc2c(C(F)(F)Cl)nc3n(c2=O)CCCC3)=NO1 = 60
• Cc1cc2nc(C(F)(F)F)c(C[S+]([O-])C3=NOC(C)(C)C3)c(=O)n2o1 (centres unmarked) = 0
• CC1(C)CC([S+]([O-])Cc2c(C(F)(F)C(F)(F)F)nc3n(c2=O)CCCC3)=NO1 (centres unmarked) = 10

# ---- query molecule ----
Entry CC1(C)CC([S+]([O-])Cc2c(C(F)(F)C(F)(F)F)nc3n(c2=O)CCC3)=NO1 (centres unmarked) — recorded Plant response rating, Pigweed = 30

###

# reported Plant response rating, Sedge, Umbrella; entries follow
Tested on: umbrella sedge (Cyperus difformis)
Assay: Test B flooded paddy test, umbrella sedge
Assay type: in vivo
Conditions: Flood, 125 g ai/ha; scale 0 to 100
Respond using a number only.

Field: example entries. Status: answers known.
• CC1(C)CC(S(=O)(=O)Cc2c(C(F)(F)F)nc3n(c2=O)CCCCC3)=NO1 = 60
• CC1(C)CC(S(=O)(=O)Cc2c(C(F)(F)F)nc3n(c2=O)CCCO3)=NO1 = 0
• CC1(C)CC([S+]([O-])Cc2c(C(F)(F)F)nc3n(c2=O)CCC3)=NO1 (centres unmarked) = 0
• CCn1c(=O)c(C[S+]([O-])C2=NOC(C)(C)C2)nc2ccccc21 (centres unmarked) = 0

The molecule listed as CC1(C)CC([S+]([O-])Cc2c(C(F)(F)Cl)nc3n(c2=O)CCC3)=NO1 (centres unmarked) shows Plant response rating, Sedge, Umbrella equal to 0

###

Known Plant response rating, Morningglory of a selection of compounds
Test system: morningglory (Ipomoea spp.)
Test: Test A preemergence, morningglory
Type: in vivo
Conditions: 125 g ai/ha, 0 to 100 scale (0 no effect, 100 complete control)

response.value for CC1(C)CC([S+]([O-])Cc2c(C(F)(F)C(F)(F)F)nc3n(c2=O)CCCS3)=NO1 (stereo not drawn) (field: Plant response rating, Morningglory) = 0

Record `CC1(C)CC(S(=O)(=O)Cc2c(C(F)(F)F)nc3ccsn3c2=O)=NO1` , field Plant response rating, Morningglory: 70

// sample `Cc1con2c(=O)c(CS(=O)(=O)C3=NOC(C)(C)C3)c(C(F)(F)F)nc12` , its Plant response rating, Morningglory was 0

So for `CC1(C)CC(S(=O)(=O)Cc2c(C(F)(F)F)nc3n(c2=O)CCCO3)=NO1` , the logged Plant response rating, Morningglory turned out to be 0

Data point: CC1(C)CC([S+]([O-])Cc2c(C(F)(F)F)nc3cccnn3c2=O)=NO1 (stereo not drawn) ; Plant response rating, Morningglory = 0

The reported value for `CCn1c(=O)c(CS(=O)(=O)C2=NOC(C)(C)C2)nc2ccccc21` in terms of Plant response rating, Morningglory is 0

###

System: corn (Zea mays)
Test: Test B preemergence, corn
Assay type: in vivo
Settings: 16 g ai/ha, scale 0 to 100
assay endpoint: Plant response rating, Corn
Field format: numeric only.

Illustrative cases are given below, each with its answer.
* CC1(C)CC(S(=O)(=O)Cc2c(C(F)(F)C(F)(F)F)nc3n(c2=O)CCC3)=NO1 | 0
* CC1(C)CC(S(=O)(=O)Cc2c(C(F)(F)F)nc3n(c2=O)CCS3)=NO1 | 0
* CC1(C)CC(S(=O)(=O)Cc2c(C(F)(F)C(F)(F)F)nc3n(c2=O)CCCC3)=NO1 | 0

Kindly consider the entry below.
Value of Plant response rating, Corn reported for the compound `CC1(C)CC(S(=O)(=O)Cc2c(C(F)(F)F)nc3n(c2=O)CCCC3)=NO1` is 10
